Molecular target: P. falciparum apicoplast DNA polymerase (Pf-apPOL) (Plasmodium falciparum, UniProt Q8ILY1)
Sequence (Q8ILY1 entry or part of it): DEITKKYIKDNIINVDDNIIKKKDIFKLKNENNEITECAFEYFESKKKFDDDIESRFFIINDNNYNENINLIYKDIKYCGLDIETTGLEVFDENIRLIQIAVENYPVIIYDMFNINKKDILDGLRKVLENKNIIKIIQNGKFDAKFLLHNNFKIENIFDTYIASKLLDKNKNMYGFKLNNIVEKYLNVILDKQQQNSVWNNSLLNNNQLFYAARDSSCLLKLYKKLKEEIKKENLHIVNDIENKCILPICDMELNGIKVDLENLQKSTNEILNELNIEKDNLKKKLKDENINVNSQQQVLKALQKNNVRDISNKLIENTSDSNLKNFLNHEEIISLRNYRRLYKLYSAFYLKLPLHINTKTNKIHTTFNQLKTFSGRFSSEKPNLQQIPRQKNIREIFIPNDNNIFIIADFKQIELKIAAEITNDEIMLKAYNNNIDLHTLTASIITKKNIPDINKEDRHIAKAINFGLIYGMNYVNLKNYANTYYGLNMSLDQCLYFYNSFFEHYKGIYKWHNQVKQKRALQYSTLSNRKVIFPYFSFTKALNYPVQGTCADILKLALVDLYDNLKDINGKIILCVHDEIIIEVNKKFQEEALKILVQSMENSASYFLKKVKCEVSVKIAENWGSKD
Assay: Fluorescence-based high-throughput DNA polymerase assay (molecular beacon), primary screen and dose-response
Type: biochemical
Details: 186 hits; DNA Pol (screen value), unit not given; 90 min, 10 µM
assay_endpoint: DNA Pol
Write the number on its own, no unit after it.

Take a look at these entries with their results.
compound=Cn1nc(-c2nc(-c3ccccc3)no2)c2c1CCN(C(=O)Cc1cccs1)C2 result=38
compound=Nc1cc(Oc2ccc(O)c(N)c2)ccc1O result=65
compound=Cc1ccsc1Cn1c(C)ccc1C result=77
compound="O=C1CSC2=NC3=C(CCc4ccccc43)C(c3cccs3)N12 (centres unmarked)" result=63
compound=Cc1cccc(-c2noc(C(=O)NNC(=O)C(Cl)(Cl)Cl)n2)c1 result=74
compound=Cn1nc(-c2nnc(-c3ccccc3F)o2)c2c1CCN(C(=O)c1ccccc1Cl)C2 result=48
compound="CC(C)CC(C(=O)O)N1C(=O)C2C3C=CC(C2C1=O)C1C(=O)N(C(CC(C)C)C(=O)O)C(=O)C31 (centres unmarked)" result=28

Consider the additional compound presented here.
Exam item: # lookup: DNA Pol of Cc1nc(C)c2c(n1)N(CC1CCCCC1)C(=O)CC2
Marked response: 50
